test: Cytotoxicity assessment against Vero cells (MTS); conditions: monkey, Vero cells (monkey kidney epithelial cells)
Property measured: IC50 at 24 h

Input: Quick one: IC50 at 24 h for COC(=O)N/N=C/c1c[n+]([O-])c2ccccc2[n+]1[O-] ?
Output: > 128 µg/mL

* * *

test system: Bif. longum; assay: MIC against human gut microbiota; format: cell-based, Bifidobacterium longum; conditions: Bifidobacterium longum, Bif. longum HM- 848, BHIS broth, anaerobic; read-out: minimum inhibitory concentration (MIC)
Structures can show the parent of a compound that is named as a salt.
Property measured: MIC

Recorded results for 5 compounds are shown here.
[
  {
    "Compound": "COc1cc2c(cc1O)CCN[C@]21CS[C@@H]2c3c(OC(C)=O)c(C)c4c(c3[C@H](COC1=O)N1[C@@H]2[C@H]2c3c(cc(C)c(OC)c3O)C[C@@H]([C@@H]1C#N)N2C)OCO4",
    "Experimental system": "Bif. longum",
    "MIC": "≤ 2 µg/mL"
  },
  {
    "Compound": "CCc1c(Cl)c(O)c(Cl)c(O)c1C(=O)O[C@H]1[C@H](O)[C@H](OC)[C@H](OC/C2=C\\C=C\\C[C@H](O)/C(C)=C/[C@H](CC)[C@@H](O[C@@H]3OC(C)(C)[C@@H](OC(=O)C(C)C)[C@H](O)[C@@H]3O)/C(C)=C/C(C)=C/C[C@@H]([C@@H](C)O)OC2=O)O[C@@H]1C",
    "Experimental system": "Bif. longum",
    "MIC": "≤ 2 µg/mL"
  },
  {
    "Compound": "Oc1c(Br)cc(Br)c2cccnc12",
    "Experimental system": "Bif. longum",
    "MIC": "64 µg/mL"
  },
  {
    "Compound": "N=C(N/N=C/c1ccc(Cl)cc1)N/N=C/c1ccc(Cl)cc1 [Robenidine hydrochloride]",
    "Experimental system": "Bif. longum",
    "MIC": "≤ 2 µg/mL"
  },
  {
    "Compound": "CCCCc1oc2ccc(NS(C)(=O)=O)cc2c1C(=O)c1ccc(OCCCN(CCCC)CCCC)cc1",
    "Experimental system": "Bif. longum",
    "MIC": "8 µg/mL"
  }
]

Input: Return reported MIC; argument: COC(=O)N/N=C/c1c[n+]([O-])c2ccccc2[n+]1[O-]
Output: 4 µg/mL

Input: Which measured MIC value corresponds to Cc1ccc2c(Cl)cc(Cl)c(O)c2n1 ?
Output: 64 µg/mL

* * *

system: B. dorei; experiment: MIC against human gut microbiota; assay type: cell-based, Bacteroides dorei; settings: Phocaeicola dorei; B. dorei HM- 719, BHIS broth, anaerobic; read-out: minimum inhibitory concentration (MIC)
Listed next: entries and their corresponding MIC.
The reply should contain only the number, in µg/mL.

[
  {
    "Compound": "COC(=O)N/N=C/c1c[n+]([O-])c2ccccc2[n+]1[O-] [Carbadox]",
    "MIC [µg/mL]": 2
  }
]

Input: Dear colleague, I am looking for the recorded MIC of the following compound: Oc1c(Br)cc(Br)c2cccnc12 [Broxyquinoline]
Output: 8

Input: Suppose we examine the compound CCCCc1oc2ccc(NS(C)(=O)=O)cc2c1C(=O)c1ccc(OCCCN(CCCC)CCCC)cc1 [Dronedarone] ; what MIC value has been reported?
Output: 8

* * *

List of MIC values.
tested on: C. difficile clinical isolates; test: MIC against a panel of 20 C. difficile clinical isolates (broth microdilution); format: cell-based, Clostridioides difficile; settings: Clostridioides difficile, C. difficile CD-1 (Ribotype-027); read-out: minimum inhibitory concentration (MIC)
Where a name gives a salt, the structure may show the parent alone.
Write the number in µg/mL without appending the unit.

The following compounds have reported results that may help.
[
  {
    "Compound": "COC(=O)N/N=C/c1c[n+]([O-])c2ccccc2[n+]1[O-] [Carbadox]",
    "Observed value": 2
  },
  {
    "Compound": "CCCCc1oc2ccc(NS(C)(=O)=O)cc2c1C(=O)c1ccc(OCCCN(CCCC)CCCC)cc1 [Dronedarone]",
    "Observed value": 4
  },
  {
    "Compound": "Cc1ccc2c(Cl)cc(Cl)c(O)c2n1 [Chlorquinaldol]",
    "Observed value": 0.125
  }
]

Input: // lookup MIC for Oc1c(Br)cc(Br)c2cccnc12 [Broxyquinoline]
Output: 0.25

Input: Please look up its MIC: N=C(N/N=C/c1ccc(Cl)cc1)N/N=C/c1ccc(Cl)cc1 [Robenidine hydrochloride]
Output: 1

Input: Given CCc1c(Cl)c(O)c(Cl)c(O)c1C(=O)O[C@H]1[C@H](O)[C@H](OC)[C@H](OC/C2=C\C=C\C[C@H](O)/C(C)=C/[C@H](CC)[C@@H](O[C@@H]3OC(C)(C)[C@@H](OC(=O)C(C)C)[C@H](O)[C@@H]3O)/C(C)=C/C(C)=C/C[C@@H]([C@@H](C)O)OC2=O)O[C@@H]1C [Fidaxomicin] , state its recorded MIC.
Output: 0.06

* * *

Form field: MIC (one value per entry).
system: B. fragilis; assay: MIC against human gut microbiota; type: cell-based, Bacteroides fragilis; settings: Bacteroides fragilis, B. fragilis HM- 718, BHIS broth, anaerobic; read-out: minimum inhibitory concentration (MIC)
Where a name gives a salt, the structure may show the parent alone.

See these solved cases before continuing.
[
  {
    "Compound": "COc1cc2c(cc1O)CCN[C@]21CS[C@@H]2c3c(OC(C)=O)c(C)c4c(c3[C@H](COC1=O)N1[C@@H]2[C@H]2c3c(cc(C)c(OC)c3O)C[C@@H]([C@@H]1C#N)N2C)OCO4",
    "Observed value": "≤ 2 µg/mL"
  },
  {
    "Compound": "Cc1ccc2c(Cl)cc(Cl)c(O)c2n1",
    "Observed value": "≤ 2 µg/mL"
  }
]

# next compound below
Input: Look up MIC for this compound: N=C(N/N=C/c1ccc(Cl)cc1)N/N=C/c1ccc(Cl)cc1 [Robenidine hydrochloride]
Output: ≤ 2 µg/mL

* * *

system: C. difficile clinical isolates; assay: MIC against a panel of 20 C. difficile clinical isolates (broth microdilution); assay type: cell-based, Clostridioides difficile; conditions: Clostridioides difficile, ATCC43255, C. difficile ATCC 43255; read-out: minimum inhibitory concentration (MIC)
Counter-ions that a name gives are not always drawn.
Values of MIC strictly less than 0.2 µg/mL map to Y, and values of at least 0.2 µg/mL map to N.

Illustrative cases are given below, each with its answer.
[
  {
    "Compound": "Oc1c(Br)cc(Br)c2cccnc12 [Broxyquinoline]",
    "Cat": "N"
  },
  {
    "Compound": "CCCCc1oc2ccc(NS(C)(=O)=O)cc2c1C(=O)c1ccc(OCCCN(CCCC)CCCC)cc1 [Dronedarone]",
    "Cat": "N"
  },
  {
    "Compound": "Cc1ccc2c(Cl)cc(Cl)c(O)c2n1 [Chlorquinaldol]",
    "Cat": "Y"
  }
]

Input: is_below(MIC, 0.2 µg/mL) for N=C(N/N=C/c1ccc(Cl)cc1)N/N=C/c1ccc(Cl)cc1 [Robenidine hydrochloride] ?
Output: N

Input: State whether 0.2 µg/mL exceeds MIC recorded for CCc1c(Cl)c(O)c(Cl)c(O)c1C(=O)O[C@H]1[C@H](O)[C@H](OC)[C@H](OC/C2=C\C=C\C[C@H](O)/C(C)=C/[C@H](CC)[C@@H](O[C@@H]3OC(C)(C)[C@@H](OC(=O)C(C)C)[C@H](O)[C@@H]3O)/C(C)=C/C(C)=C/C[C@@H]([C@@H](C)O)OC2=O)O[C@@H]1C [Fidaxomicin] .
Output: Y

Input: Below 0.2 µg/mL on MIC? Entry COC(=O)N/N=C/c1c[n+]([O-])c2ccccc2[n+]1[O-] [Carbadox]
Output: N

* * *

test system: B. fragilis; experiment: MIC against human gut microbiota; assay type: cell-based, Bacteroides fragilis; conditions: Bacteroides fragilis, B. fragilis HM- 709, BHIS broth, anaerobic; read-out: minimum inhibitory concentration (MIC)
Readings of MIC for the listed compounds
Write the number in µg/mL without appending the unit.

Input: GET /values?readout=MIC&item= COC(=O)N/N=C/c1c[n+]([O-])c2ccccc2[n+]1[O-]
Output: 2

Input: Query (compound): CCCCc1oc2ccc(NS(C)(=O)=O)cc2c1C(=O)c1ccc(OCCCN(CCCC)CCCC)cc1 ; field requested: MIC
Output: 8

Input: Please report the recorded MIC for Oc1c(Br)cc(Br)c2cccnc12 .
Output: 8

* * *

test system: C. difficile clinical isolates; assay: MIC against a panel of 20 C. difficile clinical isolates (broth microdilution); type: cell-based, Clostridioides difficile; conditions: Clostridioides difficile, C. difficile NR-49319; read-out: minimum inhibitory concentration (MIC)
Structures can show the parent of a compound that is named as a salt.
Property measured: MIC (µg/mL)
Please respond with the number in µg/mL and leave the unit unwritten.

[
  {
    "Compound": "COC(=O)N/N=C/c1c[n+]([O-])c2ccccc2[n+]1[O-]",
    "MIC (µg/mL)": 0.5
  },
  {
    "Compound": "CCc1c(Cl)c(O)c(Cl)c(O)c1C(=O)O[C@H]1[C@H](O)[C@H](OC)[C@H](OC/C2=C\\C=C\\C[C@H](O)/C(C)=C/[C@H](CC)[C@@H](O[C@@H]3OC(C)(C)[C@@H](OC(=O)C(C)C)[C@H](O)[C@@H]3O)/C(C)=C/C(C)=C/C[C@@H]([C@@H](C)O)OC2=O)O[C@@H]1C",
    "MIC (µg/mL)": 0.03
  },
  {
    "Compound": "CCCCc1oc2ccc(NS(C)(=O)=O)cc2c1C(=O)c1ccc(OCCCN(CCCC)CCCC)cc1",
    "MIC (µg/mL)": 8
  },
  {
    "Compound": "Cc1ccc2c(Cl)cc(Cl)c(O)c2n1",
    "MIC (µg/mL)": 0.06
  },
  {
    "Compound": "N=C(N/N=C/c1ccc(Cl)cc1)N/N=C/c1ccc(Cl)cc1 [Robenidine hydrochloride]",
    "MIC (µg/mL)": 1
  }
]

# evaluate next
Input: Give its MIC value. Item: Oc1c(Br)cc(Br)c2cccnc12
Output: 0.25
